Each entry below carries its recorded Thrombosis Index.
Test system: whole blood
assay: Thrombogenicity (whole blood thrombosis)
protocol conditions: 0.1 mg/mL
From the text: Hemolytic activity and thrombogenicity are the primary parameters for evaluating the safety of medical formulations. The phenotypic sea urchin embryo assay developed by colleagues is a visual way to study the toxicity of formulations in vivo. The sea urchin and human genomes contain more than 7000 common genes, including orthologs associated with a number of human diseases. […]
Report the value in % with no unit label.

query smiles	Thrombosis Index / %
COc1cc(CCC[P+](c2ccccc2)(c2ccccc2)c2ccccc2)cc2c1OCO2	1.5
COc1cc(CCC[P+](c2ccccc2)(c2ccccc2)c2ccccc2)c(OC)c(OC)c1OC	0.7
COc1c(CCC[P+](c2ccccc2)(c2ccccc2)c2ccccc2)cc2c(c1OC)OCO2	1.0

Please examine the following record next.
Dear colleague, I am looking for the recorded Thrombosis Index of the following molecule: `COc1cc(CCC[P+](c2ccccc2)(c2ccccc2)c2ccccc2)c(OC)c2c1OCO2`
1.1
